# Read-out: Interleukin-8 (IL8), CXCL8 (gene 3576)
# run-description: BSK_SAg_IL8: BioMAP Diversity Plus: SAg Assay for Interleukin-8 (IL8) Biomarker Activity (AID 2283094)
# protocol-conditions: primary human HUVEC with PBMC; actives raise or lower the signal
# Method: BSK_SAg is a cell-based, multiplexed-readout assay that uses umbilical vein endothelium and peripheral blood mononuclear cells, a human vascular primary cell co-culture, with measurements taken at 24 hours after chemical dosing in a 96-well plate.BSK_SAg_IL8 is an assay component measured in the BSK_SAg assay. It measures IL-8 antibody related to regulation of gene expression using ELISA technology.Data from the assay component BSK_SAg_IL8 was analyzed into 1 assay endpoint. […]
The source made the active and inactive calls. The calls were made as follows: active = hit-call score of the fitted dose curve at least 0.9, where 1 is the maximum; inactive = score below 0.9.
Tick one outcome: active, inactive

Task: Hi, do you know how `O=CCCCC=O` came out in this test?
Result: inactive

Task: # outcome recorded in this test, key = `CC1=CC(=O)/C(=C(/C)O)C(=O)O1`
Result: inactive

Task: What outcome does the record of this test show for `CCCCCc1ccc(N)cc1` ?
Result: inactive

Task: Please share the test call associated with `CCCCCCCCCCCCO` .
Result: active

Task: Per the assay record, what outcome was assigned to `Cc1ccc2oc(CN(Cc3ccccc3)C(=O)Nc3c(F)cc(F)cc3F)c(-c3ccc(Cl)cc3)c2c1` ?
Result: inactive

Task: Short answer needed: outcome of this test for `Cc1cn([C@H]2C[C@H](N=[N+]=[N-])[C@@H](CO)O2)c(=O)[nH]c1=O` ?
Result: inactive

Task: Check the results log: what was the call for `COc1cc(C(=O)NC2CCN(C)CC2)ccc1Nc1ncc2c(n1)N(C1CCCC1)CC(F)(F)C(=O)N2C` ?
Result: active

Task: Per the records of this test, what outcome belongs to `CCCC(=O)OCCC(C)C` ?
Result: inactive

Task: Entry `CC1(C)NC(=O)N(c2ccc([N+](=O)[O-])c(C(F)(F)F)c2)C1=O` : call = ?
Result: inactive

Task: For COCC(C)OCC(C)OCC(C)O (stereo unspecified) , what call appears in the results of this test?
Result: inactive

Task: Would you mind telling me which call this test gave `COc1ccc2cc(S(=O)(=O)N[C@H](CC(=O)N[C@H](Cc3ccc(CN4[C@H](C)CCC[C@@H]4C)cc3)C(=O)N(C)C(C)C)c3ccc4c(c3)OCO4)ccc2c1` ?
Result: active

Task: Per the records of this test, what outcome belongs to `O=c1c(-c2ccc(O)cc2)coc2cc(O)cc(O)c12` ?
Result: active

Task: Write down the call the test reported for this molecule. Item: `CCCOC(=O)c1cc(O)c(O)c(O)c1`
Result: inactive

Task: Hello, I am checking results. What call was entered for `Cc1occc1C(=O)Nc1ccc(C(=O)N2CCC(F)(F)/C(=C\C(=O)N3CCC(N4CCCCC4)CC3)c3ccccc32)cc1` ?
Result: inactive

Task: Short answer needed: outcome of this test for `Cc1ccc(C(C)C)cc1` ?
Result: inactive

Task: What classification did `CCOC(=O)O[C@H](C)OC(=O)c1ccc2c(c1)cc(C(=O)NC1CCN(C(C)C)CC1)n2Cc1cc(-c2ccc(Cl)s2)on1` end up with in this test?
Result: active

Task: Tell me the assay call for `Oc1ccc2ccccc2c1` please.
Result: inactive

Task: Kindly provide the recorded test outcome for the following molecule: CC(O)CC(C)(C)O (stereo unspecified)
Result: inactive

Task: I'd appreciate the recorded outcome for `O=C(OCCCCCCOC(=O)c1ccccc1)c1ccccc1` from this test.
Result: inactive

Task: For `c1ccc2ccccc2c1` , which call appears in the assay record?
Result: inactive

Task: For CN1C(=O)N(c2ccccc2Br)Cc2cnc(Nc3ccc4c(c3)OCC(CO)O4)nc21 (stereo unspecified) , which call appears in the assay record?
Result: active

Task: Entry `O=c1[nH]sc2ccccc12` : call = ?
Result: active

Task: Call for entry `CO[C@H]1/C=C/O[C@@]2(C)Oc3c(C)c(O)c4c(O)c(c(/C=N/N5CCN(C)CC5)c(O)c4c3C2=O)NC(=O)/C(C)=C\C=C\[C@H](C)[C@H](O)[C@@H](C)[C@@H](O)[C@@H](C)[C@H](OC(C)=O)[C@@H]1C` :
Result: inactive

Task: # outcome recorded in this test, key = `Clc1ccccc1C(c1ccccc1)(c1ccccc1)n1ccnc1`
Result: active

Task: Write down the call the test reported for this molecule. Item: `CC[C@@H]1C[C@H](N(Cc2cc(C(F)(F)F)cc(C(F)(F)F)c2)C(C)=O)c2cc(C(F)(F)F)ccc2N1C(=O)OC(C)C`
Result: inactive

Task: Hello, I am checking results. What call was entered for `O=C=NCCCCCCN=C=O` ?
Result: inactive

Task: Per the assay record, what outcome was assigned to `O=C1O[C@H]([C@@H](O)CO)C(O)=C1O` ?
Result: inactive

Task: # lookup: test call for `Cc1cc2c(cc1C(F)(F)F)N(C(=O)Nc1ccc(Oc3cccnc3C)nc1)CC2`
Result: inactive

Task: # lookup: test call for `CN(C[C@@H](CC[N+]12CCC(C3CCCCC3)(CC1)CC2)c1ccc(Cl)c(Cl)c1)C(=O)c1cc(C(F)(F)F)cc(C(F)(F)F)c1`
Result: active

Task: Per the records of this test, what outcome belongs to `CC(C)(C)c1csc(-c2cc3cc(OCc4ccccc4CC(=O)O)ccc3o2)n1` ?
Result: active

Task: # outcome recorded in this test, key = `O=C(O)c1ccccc1-n1cc(C(=O)O)c(=O)c2cc(Nc3c(F)cc(F)cc3Cl)c(Cl)cc21`
Result: inactive

Task: Could you please tell me the result logged for `CN(C)C(=O)C1(N2CCCCC2)CCN(CC[C@@]2(c3ccc(Cl)c(Cl)c3)CN(C(=O)c3ccccc3)CCO2)CC1` in this assay?
Result: active

Task: # outcome recorded in this test, key = `Cc1cc(F)ccc1-c1cc(N2CC[C@@H](O)[C@H]2CO)ncc1N(C)C(=O)C(C)(C)c1cc(C(F)(F)F)cc(C(F)(F)F)c1`
Result: active

Task: Per the records of this test, what outcome belongs to `CCCCOC(=O)c1ccc(O)cc1` ?
Result: inactive

Task: Outcome? `CCN(Cc1cccnc1)C(=O)c1cccc(Cl)c1[C@]1(C)C(=O)N(Cc2ccc(OC)cc2OC)c2ccc(Cl)cc21`
Result: active

Task: Test call for this molecule, please: OC12N=C(c3ccccc3)SC1Cc1cc(Cl)ccc12 (stereo unspecified)
Result: inactive

All figures here come from PubChem BioAssay (EPA / NIEHS).
